// provenance: patent US8551988B2

The compounds listed here are annotated with their IC50.
Biological target: HDAC1 enzyme (recombinant GST-HDAC1) (Homo sapiens (Human))
Test: In vitro HDAC assay (BIOMOL fluorescent-based HDAC activity assay), HDAC1
Type: biochemical
Details: Free base; read-out: IC50 (HDAC1)
Provide the reading as a plain figure in nM.

Request: Tell me IC50 reported for COc1cc(Cn2c(CCc3ccccc3)nc3cc(/C=C/C(=O)NO)ccc32)cc(OC)c1OC [Compound 2]
Result: 43

Request: Give IC50 for the following compound: O=C(/C=C/c1ccc2c(c1)nc(CCc1ccccc1)n2CCN1CCCCC1)NO [Compound 67]
Result: 37

Turning to the following compound.
Request: Provide measured IC50 value, entry: CN(C)CC(C)(C)Cn1c(CCc2ccccc2)nc2cc(/C=C/C(=O)NO)ccc21 [Compound 17]
Result: 29

* * *

Target: HDAC1 enzyme (recombinant GST-HDAC1) (Homo sapiens (Human), UniProt Q13547)
Sequence (Q13547 whole entry): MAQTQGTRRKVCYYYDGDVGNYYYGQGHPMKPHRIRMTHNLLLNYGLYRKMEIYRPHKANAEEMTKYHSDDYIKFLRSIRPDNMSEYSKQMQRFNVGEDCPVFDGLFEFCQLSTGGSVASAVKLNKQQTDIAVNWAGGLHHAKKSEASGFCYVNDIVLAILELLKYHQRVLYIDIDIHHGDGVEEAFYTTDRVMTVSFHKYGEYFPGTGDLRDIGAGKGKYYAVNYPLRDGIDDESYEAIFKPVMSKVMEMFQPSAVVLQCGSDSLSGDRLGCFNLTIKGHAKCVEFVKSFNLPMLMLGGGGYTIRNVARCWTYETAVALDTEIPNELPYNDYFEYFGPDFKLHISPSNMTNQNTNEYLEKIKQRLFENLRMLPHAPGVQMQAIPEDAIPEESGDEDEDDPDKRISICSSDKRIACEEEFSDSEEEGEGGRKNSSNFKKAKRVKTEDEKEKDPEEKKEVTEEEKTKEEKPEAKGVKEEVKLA
Experiment: In vitro HDAC assay (BIOMOL fluorescent-based HDAC activity assay), HDAC1
Format: biochemical
Details: read-out: HDAC1 Enzyme Activity IC50
# if measured IC50 < 200 nM: Yes  # else: No

Request: In the record for COc1cc(Cn2c(CCc3ccccc3)nc3cc(/C=C/C(=O)NO)ccc32)cc(OC)c1OC , is IC50 less than 200 nM?
Result: Yes

Request: Check if IC50 falls below 200 nM for Cn1c(CNC(=O)Cc2ccccc2)nc2cc(/C=C/C(=O)NO)ccc21 .
Result: Yes

Request: Quick check: IC50 of CN(C)CC(C)(C)Cn1c(SCc2ccccc2)nc2cc(/C=C/C(=O)NO)ccc21 under 200 nM?
Result: Yes

Request: Hello, I'm reviewing records and need to know if IC50 of Cn1c(CCCc2ccccc2)nc2cc(/C=C/C(=O)NO)ccc21 is below 200 nM. Could you check?
Result: Yes

Request: Hello, is IC50 of the following compound strictly smaller than 200 nM? O=C(/C=C/c1ccc2c(c1)nc(CCc1ccccc1)n2CCCO)NO
Result: Yes

Further cases:
Request: Criterion: IC50 strictly below 200 nM. Is it met by O=C(/C=C/c1ccc2[nH]cnc2c1)NO ?
Result: No

Request: Would you kindly verify if IC50 of O=C(/C=C/c1ccc2[nH]c(CCc3ccccc3)nc2c1)NO is strictly less than 200 nM?
Result: Yes

Request: Check if IC50 falls below 200 nM for COc1cc(-c2nc3cc(/C=C/C(=O)NO)ccc3n2CC(O)CO)ccc1OCc1ccccc1 (centres unmarked) .
Result: No

* * *

Molecular target: HDAC1 enzyme (recombinant GST-HDAC1) (Homo sapiens (Human))
Assay: In vitro HDAC assay (BIOMOL fluorescent-based HDAC activity assay), HDAC1
Assay type: biochemical
Details: read-out: HDAC1 Enzyme Activity IC50
Listing of recorded log10(IC50) by entry.
Heads up, the numbers here are log10 of IC50 in nM units.

Request: Output measured log10(IC50) for this item: COc1ccc(-c2nc3cc(/C=C/C(=O)NO)ccc3n2CCO)cc1
Result: 3.64

Request: Read off the recorded log10(IC50) for O=C(/C=C/c1ccc2c(c1)ncn2Cc1ccccc1)NO
Result: 2.57

Request: Identify log10(IC50) associated with the compound Cn1c(CNCc2ccccc2)nc2cc(/C=C/C(=O)NO)ccc21
Result: 2.06

Request: Supply reported log10(IC50) belonging to this compound: CCn1c(CCCOc2ccccc2)nc2cc(/C=C/C(=O)NO)ccc21
Result: 2.10

Request: Give log10(IC50) for O=C(/C=C/c1ccc2c(c1)nc(-c1ccsc1)n2CCCO)NO
Result: 3.28

Request: Supply measured log10(IC50) of O=C(/C=C/c1ccc2c(c1)nc(-c1ccccn1)n2CC(O)CO)NO (stereo not drawn) in your reply.
Result: 3.13

---
Request: For the compound CCn1c(CCCc2c[nH]c3ccccc23)nc2cc(/C=C/C(=O)NO)ccc21 , give its measured log10(IC50) value.
Result: 1.81

Request: Return value of log10(IC50) for input CCn1cnc2cc(/C=C/C(=O)NO)ccc21 , no commentary.
Result: 3.09

Request: Supply log10(IC50) value. Item: O=C(/C=C/c1ccc2c(c1)nc(COCc1ccccc1)n2CCCO)NO
Result: 2.22

* * *

Target: HDAC1 enzyme (recombinant GST-HDAC1) (Homo sapiens (Human))
Test: In vitro HDAC assay (BIOMOL fluorescent-based HDAC activity assay), HDAC1
Type: biochemical
Details: Salt of CF3COOH; read-out: IC50 (HDAC1)
Endpoint Name: IC50 (nM)
Your answer should be a plain number; it is taken to be in nM.

Request: Determine from records and report IC50 for COc1cc(Cn2c(CCc3ccccc3)nc3cc(/C=C/C(=O)NO)ccc32)cc(OC)c1OC [Compound 2]
Result: 49

* * *

Biological target: HDAC1 enzyme (recombinant GST-HDAC1) (Homo sapiens (Human), UniProt Q13547)
Test: In vitro HDAC assay (BIOMOL fluorescent-based HDAC activity assay), HDAC1
Type: biochemical
Settings: read-out: HDAC1 Enzyme Activity IC50
Recorded pIC50 values for a group of compounds are listed next.
Answer as the number alone; pIC50 is minus log10 of concentration in mol/L.

Recorded pIC50, per entry:
Request: Item CCn1c(CNCc2ccccc2)nc2cc(/C=C/C(=O)NO)ccc21 : provide pIC50
Result: 6.64

Request: Hello, please tell me recorded pIC50 for this one: O=C(/C=C/c1ccc2c(c1)nc(-c1ccncc1)n2CCCO)NO
Result: 6.07

Request: Read off the recorded pIC50 for CC(C)Cc1nc2cc(/C=C/C(=O)NO)ccc2n1CCc1ccccc1
Result: 5.88

Request: State, in one line, measured pIC50 of COc1cc(-c2nc3cc(/C=C/C(=O)NO)ccc3n2CCCO)ccc1OCc1ccccc1
Result: 5.87

Request: Annotate the compound O=C(/C=C/c1ccc2c(c1)nc(CCc1ccccc1)n2Cc1ccccn1)NO with its measured pIC50.
Result: 6.71

New cases:
Request: Query pIC50 for CCCCCCCCc1nc2cc(/C=C/C(=O)NO)ccc2n1CCCO
Result: 6.28

Request: Look up and report measured pIC50 for this entry: CN(C)CCCn1c(CCc2ccccc2)nc2cc(/C=C/C(=O)NO)ccc21
Result: 6.79

Request: Assign pIC50 to the following record: CC(Cc1nc2cc(/C=C/C(=O)NO)ccc2n1CCCO)c1ccccc1 (stereo not drawn)
Result: 7.29

Request: Give the value of pIC50 reported for the following: CCn1c(CCNCc2ccccc2)nc2cc(/C=C/C(=O)NO)ccc21
Result: 6.43

Request: Give me measured pIC50, please, for this compound: CN(C)CCCCn1c(CCc2ccccc2)nc2cc(/C=C/C(=O)NO)ccc21
Result: 6.82

Request: Please indicate pIC50 recorded for CN(C)CC(C)(C)Cn1c(CCc2cccnc2)nc2cc(/C=C/C(=O)NO)ccc21
Result: 6.40

Request: Give pIC50 for the following compound: CCCn1c(CCc2ccccc2)nc2cc(/C=C/C(=O)NO)ccc21
Result: 6.64

Request: Identify pIC50 associated with the compound O=C(/C=C/c1ccc2c(c1)nc(CCc1ccccc1)n2CCc1ccccc1)NO
Result: 6.06

Request: Query pIC50 for CC(C)Cc1nc2cc(/C=C/C(=O)NO)ccc2n1CCCO
Result: 7.19

Request: Identify pIC50 associated with the compound O=C(/C=C/c1ccc2c(c1)nc(CCc1ccccc1)n2CCCN1CCCC1)NO
Result: 6.52

Request: Look up pIC50 of COc1cccc(CCc2nc3cc(/C=C/C(=O)NO)ccc3n2CC(C)(C)CN(C)C)c1 and report it.
Result: 7.28

Request: Given the compound O=C(/C=C/c1ccc2c(c1)nc(CCc1ccccc1)n2CCCN1CCOCC1)NO , write its reported pIC50.
Result: 6.61

Request: Output measured pIC50 for this item: Cn1cnc2cc(/C=C/C(=O)NO)ccc21
Result: 5.85

* * *

Biological target: HDAC8 enzyme (recombinant GST-HDAC8) (Homo sapiens (Human))
Sequence (Q9BY41 whole entry): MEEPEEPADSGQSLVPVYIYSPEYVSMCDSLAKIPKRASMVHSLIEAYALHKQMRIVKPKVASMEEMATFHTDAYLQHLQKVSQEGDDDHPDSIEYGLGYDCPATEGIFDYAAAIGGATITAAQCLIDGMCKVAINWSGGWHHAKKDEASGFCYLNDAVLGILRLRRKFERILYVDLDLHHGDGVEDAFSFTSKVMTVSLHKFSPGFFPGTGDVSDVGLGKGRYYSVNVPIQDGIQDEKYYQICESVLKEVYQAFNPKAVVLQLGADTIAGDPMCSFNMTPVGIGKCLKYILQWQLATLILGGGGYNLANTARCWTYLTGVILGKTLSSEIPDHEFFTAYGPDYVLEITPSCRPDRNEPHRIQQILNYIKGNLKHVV
Assay: In vitro HDAC assay (BIOMOL fluorescent-based HDAC activity assay), HDAC8
Format: biochemical
Conditions: read-out: HDAC8 Enzyme Activity IC50
Endpoint Name: IC50 (µM)
Give the quantity in µM, number only.

// worked examples, IC50 included
Request: Kindly indicate its recorded IC50. Item: O=C(/C=C/c1ccc2c(c1)nc(CCc1ccccc1)n2CCc1ccccn1)NO
Result: 0.29

Request: For O=C(/C=C/c1ccc2c(c1)nc(COCc1ccccc1)n2CCc1cccnc1)NO , write its IC50.
Result: 0.3

Request: Supply measured IC50 of O=C(/C=C/c1ccc2c(c1)nc(CCc1ccccc1)n2CCc1cccnc1)NO in your reply.
Result: 0.329

Continuing:
Request: Note down IC50 recorded for O=C(/C=C/c1ccc2c(c1)nc(CCc1ccccc1)n2Cc1ccccc1)NO
Result: 1.45

Request: Retrieve IC50 measured for O=C(/C=C/c1ccc2c(c1)nc(-c1ccsc1)n2CCCO)NO and print it.
Result: 0.537

Request: Return the recorded IC50 value; entry: CC(C)Cc1nc2cc(/C=C/C(=O)NO)ccc2n1CCc1ccccn1
Result: 0.234
